// provenance: the supplement of paper PMC3545927

study.target: furin, P09958;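 further: purified furin at 1:10 enzyme:substrate in 50 mM HEPES pH 7.5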
Sequence (P09958 whole entry): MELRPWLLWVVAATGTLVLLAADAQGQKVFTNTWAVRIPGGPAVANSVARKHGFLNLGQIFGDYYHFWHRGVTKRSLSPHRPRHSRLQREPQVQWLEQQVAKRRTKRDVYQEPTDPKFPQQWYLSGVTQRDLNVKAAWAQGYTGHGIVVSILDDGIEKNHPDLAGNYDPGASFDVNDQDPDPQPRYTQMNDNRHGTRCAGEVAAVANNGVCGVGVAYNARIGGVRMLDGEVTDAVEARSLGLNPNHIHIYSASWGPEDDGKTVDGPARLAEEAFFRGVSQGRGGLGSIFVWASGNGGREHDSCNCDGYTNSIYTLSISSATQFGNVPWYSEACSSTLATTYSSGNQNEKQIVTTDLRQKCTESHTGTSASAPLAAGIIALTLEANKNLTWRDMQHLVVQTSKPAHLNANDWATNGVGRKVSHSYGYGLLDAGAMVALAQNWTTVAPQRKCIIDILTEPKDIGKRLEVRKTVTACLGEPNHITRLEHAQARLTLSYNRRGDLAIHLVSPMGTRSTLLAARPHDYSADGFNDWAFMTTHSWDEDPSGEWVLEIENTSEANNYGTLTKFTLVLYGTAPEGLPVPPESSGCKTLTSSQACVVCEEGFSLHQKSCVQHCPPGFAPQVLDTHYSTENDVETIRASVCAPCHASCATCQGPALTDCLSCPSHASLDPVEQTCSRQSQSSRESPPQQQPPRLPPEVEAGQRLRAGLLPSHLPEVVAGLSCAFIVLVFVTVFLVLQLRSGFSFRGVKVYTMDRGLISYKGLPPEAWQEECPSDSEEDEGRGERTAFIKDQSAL
assay.details: furin cleavage Z-score vs untreated control; higher = more cleavage, active = 3.5 or more, inactive = 1 or less, 8 variable residues between constant flanks
condition.context: 30 min
Some of the results follow. The hit rate among all sequences tested is not known here.
Outcome codes: active, inactive

INSERT INTO measurements (sequence_string, class_label) VALUES
  ('CAGASRSPRGAGNASASA [FS-237]', 'active'),
  ('CADRSRTPRGAGNASASA [FS-759]', 'active'),
  ('CAEVPTSTWVAGNASASA [HC2199]', 'inactive'),
  ('CAVEGEVQIVAGNASASA [HC688]', 'inactive'),
  ('CATTPCSGKWAGNASASA [HC1914]', 'inactive'),
  ('CAELEVVTSTAGNASASA [HC2272]', 'inactive'),
  ('CATRPCSGSWAGNASASA [HC1853]', 'inactive');
